Molecular target: T1, Epstein-Barr virus BHRF1 a.a. 1-161 with C-terminal avi-6his tag (Epstein-Barr virus)
T1 construct: also called EBV BHRF1; BHRF1-biotin
T1 chain: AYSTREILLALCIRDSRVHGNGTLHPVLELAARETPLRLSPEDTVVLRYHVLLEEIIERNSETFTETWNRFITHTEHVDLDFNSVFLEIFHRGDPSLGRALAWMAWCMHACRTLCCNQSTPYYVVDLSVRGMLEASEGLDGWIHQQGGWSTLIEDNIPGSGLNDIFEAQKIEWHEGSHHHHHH
Experiment: yeast display library, FACS sort at 100 nM BHRF1, deep sequencing
metric: Log2 enrichment ratio (log2)

- binder: "Index 65 (designed binder) GNDLKDIARQIEEQAKKALDDMAKLIRELAEKAEKFYPSKDDIRRLTHYWIAAALMAIGDAFNRLQEARRRAEWLRKWGLRREEEAEKAKKEAEERHERAKELAHKMGDEMEEKLKRG"
  metric: "Log2 enrichment ratio"
  value: -3.2
- binder: "Index 15 (designed binder) GNDRDQIEEYHRERMDEELDRAKKRLEELKKLWEKLDGDDLMKFFWTFKWIAESLKIIGDLFNRLLRTWEFAEALKKGIGFDEKKAEEAKERAYERAAEAAWKAAKLSREMREFLLKG"
  metric: "Log2 enrichment ratio"
  value: -2.77
- binder: "Index 52 (designed binder) GNDKEKFREDVKKKAKYALWKLKKLADEAKERALKFDPSEEMKREFTLEWIAWALEAIGDIFNAWLDGKKYADEAKKQGKARKEEAEETKKEATRIAKEAHEKASELARKILYHMLLG"
  metric: "Log2 enrichment ratio"
  value: -0.83
- binder: "Index 38 (designed binder) GEKLKKLAEELEKKFRKLFFILKDELDRAYLIALKTQVQRQELARDTKLWIAVALMIIGDLFNAEIQGKELRDKLIKKNQVEEQKAKEFWKKWEEVKQRAEELIKKGGEMVERLADYG"
  metric: "Log2 enrichment ratio"
  value: -1.71

Every entry's value here was drawn from patent US20160376333A1.
